Cited source: patent US20130129763A1

- system-tested: T1, Engelbreth-Holm-Swarm mouse sarcoma laminin (Sigma) (mouse, UniProt P19137 25-3083; P02469 22-1786; P02468 34-1607)
- T1 construct: also called soluble laminin
- measurement-protocol: ELISA: 40 nM protein coated, laminin 20 µg/ml, rabbit anti-laminin pAb + HRP anti-rabbit pAb
endpoint-name: binding result

recombinant UspA1^50-197 (other) KVGKATNKISGGDNNTANGTYLTIGGGDYNKTKGRYSTIGGGLFNEATNEYSTIGSGGYNKAKGRYSTIGGGGYNEATNQYSTIGGGDNNTAKGRYSTIGGGGYNEATIENSTVGGGGYNQAKGRNSTVAGGYNNEATGTDSTIAGGR = no binding
recombinant UspA1^557-704 (other) NENKDGIAKNQADIQLHDKKITNLGILHSMVARAVGNNTQGVATNKADIAKNQADIANNIKNIYELAQQQDQHSSDIKTLAKVSAANTDRIAKNKAEADASFETLTKNQNTLIEQGEALVEQNKAINQELEGFAAHADVQDKQILQNQ = no binding
